# Ki annotations
target: Carbonic anhydrase 4 (Homo sapiens, UniProt P22748)
Sequence (P22748 whole entry): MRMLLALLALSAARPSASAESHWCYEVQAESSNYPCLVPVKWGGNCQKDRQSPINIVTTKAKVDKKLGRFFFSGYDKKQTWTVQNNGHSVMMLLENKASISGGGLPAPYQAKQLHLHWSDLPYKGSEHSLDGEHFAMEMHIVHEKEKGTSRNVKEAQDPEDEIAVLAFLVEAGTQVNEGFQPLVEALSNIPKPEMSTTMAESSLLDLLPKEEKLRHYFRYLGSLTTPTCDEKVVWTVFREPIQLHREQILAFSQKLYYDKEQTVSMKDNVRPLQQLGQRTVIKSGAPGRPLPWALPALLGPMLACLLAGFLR

{"columns": ["ENTRY_SMILES", "UNIT_STRING", "REPORTED_RELATION", "Ki"],
 "data": [
  ["COc1ccc(N/N=C(\\C(C)=O)C(=O)Nc2ccc(S(N)(=O)=O)cc2)cc1OC", "µM", "=", 1.48],
  ["CC(=O)/C(=N\\Nc1cccc([N+](=O)[O-])c1)C(=O)Nc1ccc(S(N)(=O)=O)cc1", "µM", ">", 10],
  ["CC(=O)/C(=C\\c1cccc([N+](=O)[O-])c1)C(=O)Nc1ccc(S(N)(=O)=O)cc1", "µM", "=", 0.387],
  ["COc1ccc(/C=C(\\C(C)=O)C(=O)Nc2ccc(S(N)(=O)=O)cc2)cc1", "µM", "=", 0.609],
  ["COc1ccc(N/N=C(\\C(C)=O)C(=O)Nc2ccc(S(N)(=O)=O)cc2)cc1", "µM", ">", 10]
]}
